Target: panel of 442 kinases (Homo sapiens, UniProt P36888, N841I)
Construct: purchased KINOMEscan
Format: binding
Conditions: Compound Concentration 10 µM
Excerpt: We assessed the selectivity of members of this scaffold using the KINOMEscan methodology across a near comprehensive panel of 442 kinases [[18,27]].
Reported KINOMEscan: FLT3(N841I) is given for each of the following compounds.
OBSERVABLE: KINOMEscan: FLT3(N841I)

{"columns": ["COMPOUND STRING", "VALUE MEASURED"],
 "data": [
  ["COc1cc(C(=O)N2CCC(N3CCN(C)CC3)CC2)ccc1Nc1ncc2c(n1)N1CCc3cccc(c31)C(=O)N2C", 55],
  ["COc1cc(C(=O)N2CCC(N3CCN(C)CC3)CC2)ccc1Nc1ncc2c(n1)N(C)c1ccccc1C(=O)N2C", 73],
  ["CCOc1cc(C(=O)N2CCC(N3CCN(C)CC3)CC2)ccc1Nc1ncc2c(n1)N(C1CCCC1)c1ccccc1C(=O)N2C", 100],
  ["COc1cc(C(=O)N2CCC(N3CCN(C)CC3)CC2)ccc1Nc1ncc2c(n1)N(C1CCCC1)c1ccccc1C(=O)N2C", 90]
]}

====

Biological target: panel of 442 kinases (Homo sapiens)
Construct: purchased KINOMEscan
Type: binding
Details: Compound Concentration 10 µM
Form field: KINOMEscan: DYRK1A (one value per entry).
OBSERVABLE: KINOMEscan: DYRK1A

{"columns": ["COMPOUND STRING", "TESTED SYSTEM", "OBSERVABLE", "VALUE MEASURED"],
 "data": [
  ["COc1cc(C(=O)N2CCC(N3CCN(C)CC3)CC2)ccc1Nc1ncc2c(n1)N(C1CCCC1)c1ccccc1C(=O)N2C", "panel of 442 kinases (Homo sapiens)", "KINOMEscan: DYRK1A", 100],
  ["COc1cc(C(=O)N2CCC(N3CCN(C)CC3)CC2)ccc1Nc1ncc2c(n1)N1CCc3cccc(c31)C(=O)N2C", "panel of 442 kinases (Homo sapiens)", "KINOMEscan: DYRK1A", 67],
  ["COc1cc(C(=O)N2CCC(N3CCN(C)CC3)CC2)ccc1Nc1ncc2c(n1)N(C)c1ccccc1C(=O)N2C", "panel of 442 kinases (Homo sapiens)", "KINOMEscan: DYRK1A", 99],
  ["CCOc1cc(C(=O)N2CCC(N3CCN(C)CC3)CC2)ccc1Nc1ncc2c(n1)N(C1CCCC1)c1ccccc1C(=O)N2C", "panel of 442 kinases (Homo sapiens)", "KINOMEscan: DYRK1A", 88]
]}

====

Target: panel of 442 kinases (Homo sapiens)
Construct: purchased KINOMEscan
Format: binding
Details: Compound Concentration 10 µM
OBSERVABLE: KINOMEscan: NEK6

{"columns": ["COMPOUND", "TESTED SYSTEM", "VALUE MEASURED"],
 "data": [
  ["CCOc1cc(C(=O)N2CCC(N3CCN(C)CC3)CC2)ccc1Nc1ncc2c(n1)N(C1CCCC1)c1ccccc1C(=O)N2C [Compound 26]", "panel of 442 kinases (Homo sapiens)", 100],
  ["COc1cc(C(=O)N2CCC(N3CCN(C)CC3)CC2)ccc1Nc1ncc2c(n1)N(C)c1ccccc1C(=O)N2C [15 (LRRK2-IN-1)]", "panel of 442 kinases (Homo sapiens)", 76],
  ["COc1cc(C(=O)N2CCC(N3CCN(C)CC3)CC2)ccc1Nc1ncc2c(n1)N1CCc3cccc(c31)C(=O)N2C [Compound 24]", "panel of 442 kinases (Homo sapiens)", 56],
  ["COc1cc(C(=O)N2CCC(N3CCN(C)CC3)CC2)ccc1Nc1ncc2c(n1)N(C1CCCC1)c1ccccc1C(=O)N2C [Compound 25]", "panel of 442 kinases (Homo sapiens)", 100]
]}

====

This section presents molecules with their documented IC50 values.
Target: ERK5 (Homo sapiens, UniProt Q13164)
Sequence (Q13164 whole entry): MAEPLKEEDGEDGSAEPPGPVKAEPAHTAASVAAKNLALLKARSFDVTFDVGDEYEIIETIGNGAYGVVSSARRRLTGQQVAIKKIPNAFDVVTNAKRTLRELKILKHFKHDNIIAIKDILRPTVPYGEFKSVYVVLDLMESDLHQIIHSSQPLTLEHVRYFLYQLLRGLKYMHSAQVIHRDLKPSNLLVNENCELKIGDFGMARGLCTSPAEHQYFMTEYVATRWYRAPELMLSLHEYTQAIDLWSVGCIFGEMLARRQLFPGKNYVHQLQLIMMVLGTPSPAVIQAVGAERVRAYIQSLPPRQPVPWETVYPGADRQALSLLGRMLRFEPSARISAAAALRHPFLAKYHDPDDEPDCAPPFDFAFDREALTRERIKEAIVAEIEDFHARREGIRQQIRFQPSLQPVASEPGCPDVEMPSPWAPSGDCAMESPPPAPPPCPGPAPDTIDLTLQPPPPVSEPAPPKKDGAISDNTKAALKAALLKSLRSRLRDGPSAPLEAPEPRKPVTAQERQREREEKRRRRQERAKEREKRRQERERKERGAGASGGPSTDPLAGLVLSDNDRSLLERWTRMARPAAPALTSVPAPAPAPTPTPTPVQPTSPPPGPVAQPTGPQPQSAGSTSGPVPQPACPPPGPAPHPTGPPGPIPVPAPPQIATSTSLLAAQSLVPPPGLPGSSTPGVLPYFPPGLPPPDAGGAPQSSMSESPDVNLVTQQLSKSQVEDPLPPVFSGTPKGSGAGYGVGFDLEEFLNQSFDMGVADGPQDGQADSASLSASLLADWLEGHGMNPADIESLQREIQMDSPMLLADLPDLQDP
Assay: ERK5 kinase activity in vitro assay (32P-ATP, PIMtide substrate)
Conditions: in vitro assay, recombinant active ERK5; read-out: Enzymatic IC50 (ERK5)
OBSERVABLE: IC50 (nM)

{"columns": ["COMPOUND STRING", "TESTED SYSTEM", "OBSERVABLE", "VALUE MEASURED"],
 "data": [
  ["COc1cc(N2CCN(C)CC2)ccc1Nc1ncc2c(n1)N(C)c1ccc(F)cc1C(=O)N2C", "ERK5 (Homo sapiens, UniProt Q13164)", "IC50", 873],
  ["COc1cc(N2CCN(C)CC2)ccc1Nc1ncc2c(n1)N(C)c1ccccc1C(=O)N2", "ERK5 (Homo sapiens, UniProt Q13164)", "IC50", 1450],
  ["CCN1c2ccccc2C(=O)N(C)c2cnc(Nc3ccc(N4CCN(C)CC4)cc3OC)nc21", "ERK5 (Homo sapiens, UniProt Q13164)", "IC50", 66],
  ["COc1cc(N2CCN(C)CC2)ccc1Nc1ncc2c(n1)N(C)c1ccc(Cl)cc1C(=O)N2C", "ERK5 (Homo sapiens, UniProt Q13164)", "IC50", 5090],
  ["COc1cc(N2CCN(C)CC2)ccc1Nc1ncc2c(n1)N(C)c1cc(Cl)ccc1C(=O)N2C", "ERK5 (Homo sapiens, UniProt Q13164)", "IC50", 1130],
  ["COc1cc(C(=O)N2CCC(N3CCN(C)CC3)CC2)ccc1Nc1ncc2c(n1)N(C1CCCC1)c1ccccc1C(=O)N2C", "ERK5 (Homo sapiens, UniProt Q13164)", "IC50", 82]
]}

====

Overview of recorded KINOMEscan: PCTK2 for various compounds
Target: panel of 442 kinases (Homo sapiens, UniProt Q00537)
Construct: purchased KINOMEscan
Sequence (Q00537 whole entry): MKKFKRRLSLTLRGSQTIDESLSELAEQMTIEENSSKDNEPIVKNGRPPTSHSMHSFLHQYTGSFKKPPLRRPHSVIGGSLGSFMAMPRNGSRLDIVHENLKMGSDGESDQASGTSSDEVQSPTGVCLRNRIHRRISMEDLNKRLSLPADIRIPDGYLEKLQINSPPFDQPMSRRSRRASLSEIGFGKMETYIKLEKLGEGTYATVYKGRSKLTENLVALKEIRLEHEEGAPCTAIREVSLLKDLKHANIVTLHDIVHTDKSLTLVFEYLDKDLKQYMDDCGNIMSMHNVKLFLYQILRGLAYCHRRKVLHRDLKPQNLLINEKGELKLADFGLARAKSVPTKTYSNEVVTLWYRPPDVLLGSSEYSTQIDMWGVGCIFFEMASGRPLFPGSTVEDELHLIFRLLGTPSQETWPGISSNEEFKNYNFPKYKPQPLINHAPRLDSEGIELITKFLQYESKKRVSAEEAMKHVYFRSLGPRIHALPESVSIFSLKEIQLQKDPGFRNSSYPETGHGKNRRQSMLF
Type: binding
Details: Compound Concentration 10 µM
OBSERVABLE: KINOMEscan: PCTK2

{"columns": ["COMPOUND STRING", "OBSERVABLE", "VALUE MEASURED"],
 "data": [
  ["COc1cc(C(=O)N2CCC(N3CCN(C)CC3)CC2)ccc1Nc1ncc2c(n1)N(C1CCCC1)c1ccccc1C(=O)N2C", "KINOMEscan: PCTK2", 80],
  ["COc1cc(C(=O)N2CCC(N3CCN(C)CC3)CC2)ccc1Nc1ncc2c(n1)N(C)c1ccccc1C(=O)N2C", "KINOMEscan: PCTK2", 83],
  ["CCOc1cc(C(=O)N2CCC(N3CCN(C)CC3)CC2)ccc1Nc1ncc2c(n1)N(C1CCCC1)c1ccccc1C(=O)N2C", "KINOMEscan: PCTK2", 100],
  ["COc1cc(C(=O)N2CCC(N3CCN(C)CC3)CC2)ccc1Nc1ncc2c(n1)N1CCc3cccc(c31)C(=O)N2C", "KINOMEscan: PCTK2", 95]
]}

====

Target: panel of 442 kinases (Homo sapiens)
Construct: purchased KINOMEscan
Format: binding
Details: Compound Concentration 10 µM
OBSERVABLE: KINOMEscan: PRKD3

{"columns": ["COMPOUND STRING", "VALUE MEASURED"],
 "data": [
  ["COc1cc(C(=O)N2CCC(N3CCN(C)CC3)CC2)ccc1Nc1ncc2c(n1)N(C)c1ccccc1C(=O)N2C", 42],
  ["CCOc1cc(C(=O)N2CCC(N3CCN(C)CC3)CC2)ccc1Nc1ncc2c(n1)N(C1CCCC1)c1ccccc1C(=O)N2C", 100],
  ["COc1cc(C(=O)N2CCC(N3CCN(C)CC3)CC2)ccc1Nc1ncc2c(n1)N1CCc3cccc(c31)C(=O)N2C", 19],
  ["COc1cc(C(=O)N2CCC(N3CCN(C)CC3)CC2)ccc1Nc1ncc2c(n1)N(C1CCCC1)c1ccccc1C(=O)N2C", 100]
]}

====

Target: panel of 442 kinases (Homo sapiens, UniProt Q9UQB9)
Construct: purchased KINOMEscan
Sequence (Q9UQB9 whole entry): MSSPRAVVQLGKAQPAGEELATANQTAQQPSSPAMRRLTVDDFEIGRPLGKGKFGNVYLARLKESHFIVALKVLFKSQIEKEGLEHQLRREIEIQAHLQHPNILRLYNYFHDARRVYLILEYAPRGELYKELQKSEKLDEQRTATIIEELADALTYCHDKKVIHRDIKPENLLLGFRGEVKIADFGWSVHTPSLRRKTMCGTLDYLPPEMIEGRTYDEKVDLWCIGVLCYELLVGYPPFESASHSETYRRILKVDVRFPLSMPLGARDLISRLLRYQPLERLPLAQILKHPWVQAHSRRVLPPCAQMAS
Assay type: binding
Details: Compound Concentration 10 µM
Description: We assessed the selectivity of members of this scaffold using the KINOMEscan methodology across a near comprehensive panel of 442 kinases [[18,27]].
OBSERVABLE: KINOMEscan: AURKC

{"columns": ["COMPOUND STRING", "VALUE MEASURED"],
 "data": [
  ["COc1cc(C(=O)N2CCC(N3CCN(C)CC3)CC2)ccc1Nc1ncc2c(n1)N(C1CCCC1)c1ccccc1C(=O)N2C", 38],
  ["CCOc1cc(C(=O)N2CCC(N3CCN(C)CC3)CC2)ccc1Nc1ncc2c(n1)N(C1CCCC1)c1ccccc1C(=O)N2C", 66],
  ["COc1cc(C(=O)N2CCC(N3CCN(C)CC3)CC2)ccc1Nc1ncc2c(n1)N1CCc3cccc(c31)C(=O)N2C", 50],
  ["COc1cc(C(=O)N2CCC(N3CCN(C)CC3)CC2)ccc1Nc1ncc2c(n1)N(C)c1ccccc1C(=O)N2C", 50]
]}

====

Molecular target: panel of 442 kinases (Homo sapiens)
Construct: purchased KINOMEscan
Type: binding
Conditions: kinase SRPK3; compound concentration 10 µM

{"columns": ["COMPOUND", "% Ctrl, SRPK3"],
 "data": [
  ["COc1cc(C(=O)N2CCC(N3CCN(C)CC3)CC2)ccc1Nc1ncc2c(n1)N(C)c1ccccc1C(=O)N2C [15 (LRRK2-IN-1)]", "72 % Ctrl"],
  ["COc1cc(C(=O)N2CCC(N3CCN(C)CC3)CC2)ccc1Nc1ncc2c(n1)N1CCc3cccc(c31)C(=O)N2C [Compound 24]", "91 % Ctrl"],
  ["COc1cc(C(=O)N2CCC(N3CCN(C)CC3)CC2)ccc1Nc1ncc2c(n1)N(C1CCCC1)c1ccccc1C(=O)N2C [Compound 25]", "91 % Ctrl"],
  ["CCOc1cc(C(=O)N2CCC(N3CCN(C)CC3)CC2)ccc1Nc1ncc2c(n1)N(C1CCCC1)c1ccccc1C(=O)N2C [Compound 26]", "100 % Ctrl"]
]}

Each recorded value in this set is attributed to paper PMC3914206.
